tested on: HCT116-DoxR (doxorubicin-resistant colorectal carcinoma cell line); assay: MTS cell viability assay, HCT116-DoxR; details: read-out: IC50 HCT116-DoxR; 48 h of exposure, MTS, mean ± SEM;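 also: MTS colorimetric quantification of viable cells, with loss of viability tracked as complex concentration rises, in DMEM-grown HCT116-DoxR, a line whose resistance involves P-glycoprotein efflux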
PROPERTY_NAME: IC50 (µM)
The response must be a number in µM with no trailing unit.

Look over these answered cases.
1) O=C1[O][V](=[O])[O]C(=O)c2cccc1n2.c1ccc(-c2nc3ccccc3[nH]2)nc1 [complex 2, [VO(dipic)(pybim)]]	31.4
2) O=C1[O][V](=[O])[O]C(=O)c2cccc1n2.c1ccc(-c2ccnc3c2ccc2c(-c4ccccc4)ccnc23)cc1 [complex 6, [VO(dipic)(4,7-Ph2-phen)]]	0.2

Please look up its IC50: O=C1[O][V](=[O])[O]C(=O)c2cccc1n2.c1cnc2c(c1)ccc1cccnc12 [complex 8, [VO(dipic)(phen)]] 1.3

# credit: paper PMC10350923
